Source listed as patent US12590099B2.

- assay-target: Recombinant human HDAC3/SMRT heterodimer (Homo sapiens, UniProt O15379)
- Construct: FLAG (C); made in house
- Sequence (O15379 whole entry): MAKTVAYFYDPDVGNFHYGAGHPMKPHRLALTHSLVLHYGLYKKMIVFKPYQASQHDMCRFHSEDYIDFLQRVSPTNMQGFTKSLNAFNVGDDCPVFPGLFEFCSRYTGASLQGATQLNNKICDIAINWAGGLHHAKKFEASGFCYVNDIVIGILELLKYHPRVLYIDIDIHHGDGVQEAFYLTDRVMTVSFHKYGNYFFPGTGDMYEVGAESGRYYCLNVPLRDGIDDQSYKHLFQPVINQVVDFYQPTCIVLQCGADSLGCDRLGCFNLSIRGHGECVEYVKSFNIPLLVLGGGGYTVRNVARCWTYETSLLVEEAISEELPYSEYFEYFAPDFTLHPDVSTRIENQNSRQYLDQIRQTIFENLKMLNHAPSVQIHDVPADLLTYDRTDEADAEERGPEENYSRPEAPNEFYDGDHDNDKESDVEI
- Sequence (Q9Y618 1-899 partner limits assumed): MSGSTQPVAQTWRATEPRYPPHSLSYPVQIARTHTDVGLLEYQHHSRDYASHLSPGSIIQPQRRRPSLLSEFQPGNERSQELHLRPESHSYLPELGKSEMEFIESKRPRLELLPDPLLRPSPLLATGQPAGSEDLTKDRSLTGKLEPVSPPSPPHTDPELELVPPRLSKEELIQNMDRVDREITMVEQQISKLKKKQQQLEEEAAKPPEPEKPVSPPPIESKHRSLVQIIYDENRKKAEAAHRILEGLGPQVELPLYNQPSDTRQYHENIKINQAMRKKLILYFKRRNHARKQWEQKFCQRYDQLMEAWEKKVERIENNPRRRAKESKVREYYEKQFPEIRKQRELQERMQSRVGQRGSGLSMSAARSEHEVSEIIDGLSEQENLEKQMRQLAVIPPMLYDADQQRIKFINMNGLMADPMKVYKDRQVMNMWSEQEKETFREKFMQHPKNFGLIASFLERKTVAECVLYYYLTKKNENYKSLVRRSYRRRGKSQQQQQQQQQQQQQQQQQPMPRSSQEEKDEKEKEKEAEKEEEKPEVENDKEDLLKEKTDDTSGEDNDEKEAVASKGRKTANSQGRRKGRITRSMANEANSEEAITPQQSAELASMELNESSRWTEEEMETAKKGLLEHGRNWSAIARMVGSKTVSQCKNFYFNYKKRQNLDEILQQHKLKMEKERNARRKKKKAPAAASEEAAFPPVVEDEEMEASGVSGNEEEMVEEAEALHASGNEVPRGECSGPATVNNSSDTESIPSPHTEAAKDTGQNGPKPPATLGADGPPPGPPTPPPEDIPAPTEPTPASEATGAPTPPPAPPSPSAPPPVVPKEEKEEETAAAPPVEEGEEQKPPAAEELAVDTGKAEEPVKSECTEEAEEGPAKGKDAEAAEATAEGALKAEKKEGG
- measurement-protocol: Human HDAC enzyme inhibitor Fluor-de-Lys assay, HDAC3/SMRT
- Assay type: biochemical
pIC50: −log10 of the molar value.
Items are presented alongside their recorded pIC50.
measurement-name: pIC50

* CCC(=O)CCCCC[C@H](N)c1ncc(-c2ccc3nc(C)ccc3c2)[nH]1 [Compound 178] | 7.26
* CCC(=O)CCCCC[C@H](NC(=O)[C@H]1CC12CCN(C)CC2)c1nc(Cl)c(-c2cc3ccccc3nc2O)[nH]1 [Compound 81] | 7.16
* CCC(=O)CCCCC[C@H](NC(=O)C1CN(C)C1)c1ncc(-c2ccc3c(c2)C2CCC3C2)[nH]1 (stereo partly shown) [Compound 73] | 8.02
* CCC(=O)CCCCC[C@H](NC(=O)[C@H]1CC12CCN(CC)CC2)c1ncc(-c2cc3nn(C)cc3cc2OC)o1 [Compound 189] | 8.63
* CCC(=O)CCCCC[C@H](NC(=O)C1=NOC2(CCN(C)CC2)C1)c1ncc(-c2ccc3nc(C4CC4)ccc3c2)o1 [Compound 135] | 7.96
* CCC(=O)CCCCC[C@H](NC(=O)[C@H]1CC12CCN(CC)CC2)c1ncc(-c2ccc3nc(C4CC4)ccc3c2)o1 [Compound 114] | 8.98
* CCC(=O)CCCCC[C@H](NC(=O)C1CC12CCN(C)C(C)(C)C2)c1ncc(-c2ccc3nc(C)ccc3c2)[nH]1 (single isomer, unassigned) [Compound 130] | 8.64
* CCC(=O)CCCCC[C@H](NC(=O)C1=NOC2(CCN(C)CC2)C1)c1ncc(-c2ccc3nn(C)cc3c2)[nH]1 [Compound 154] | 8.56
* CCC(=O)CCCCC[C@H](NC(=O)C1=NOC2(CCN(CC)CC2)C1)c1ncc(-c2cc3ccc(C)nc3cc2OC)[nH]1 [Compound 207] | 9.44
* CC(O)C(=O)CCCCC[C@H](NC(=O)[C@H]1CC12CCN(C)CC2)c1nc(-c2ccc(F)cc2)c[nH]1 (stereo partly shown) [Compound 134] | 8.40
* CCC(=O)CCCCC[C@H](NC(=O)[C@H]1CC12CCN(C)CC2)c1[nH]c(-c2ccc(F)cc2)nc1C#N [Compound 76] | 8.54

----------
Items are presented alongside their recorded pIC50.
- assay-target: Recombinant human HDAC8 (Homo sapiens)
- Construct: purchased Enzo Life Sciences BML-SE145-0100
- Sequence (Q9BY41 whole entry): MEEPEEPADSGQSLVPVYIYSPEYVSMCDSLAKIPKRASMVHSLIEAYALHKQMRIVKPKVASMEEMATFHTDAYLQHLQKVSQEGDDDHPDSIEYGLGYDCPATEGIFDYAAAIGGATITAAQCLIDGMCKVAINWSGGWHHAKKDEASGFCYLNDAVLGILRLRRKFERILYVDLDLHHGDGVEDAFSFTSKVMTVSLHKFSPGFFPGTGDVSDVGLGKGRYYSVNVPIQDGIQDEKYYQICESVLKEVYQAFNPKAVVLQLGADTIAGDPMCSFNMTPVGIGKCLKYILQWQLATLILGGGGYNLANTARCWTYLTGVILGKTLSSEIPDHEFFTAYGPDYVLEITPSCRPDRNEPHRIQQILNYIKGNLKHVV
- measurement-protocol: Human HDAC enzyme inhibitor Fluor-de-Lys assay, HDAC8
- Assay type: biochemical
- conditions-used: recombinant human HDAC8, Fluor-de-Lys assay
pIC50: −log10 of the molar value.
measurement-name: pIC50

* CCC(=O)CCCCC[C@H](NC(=O)[C@H]1CC12CCN(C)CC2)c1ncc(-c2ccc(C)nc2OC)[nH]1 | 5.22
* CCC(=O)CCCCC[C@H](NC(=O)[C@H]1CC12CCCN(C)C2)c1ncc(-c2cc3ccccc3nc2OC)[nH]1 (some centres unmarked) [Compound 286] | 5.41
* CCC(=O)CCCCC[C@H](NC(=O)C1CC12CN(C)C2)c1ncc(-c2cc3ccccc3nc2OC)[nH]1 (some centres unmarked) | 5.69
* CCC(=O)CCCCC[C@H](NC(=O)C1CCC2(CC1)CNC2)c1nnc(-c2cc3ccccc3nc2OC)o1 | 4.56
* CCC(=O)CCCCC[C@H](NC(=O)[C@H]1CC12CCN(C(C)C)CC2)c1ncc(-c2cc3ccccc3nc2OC)[nH]1 | 5.25
* CCC(=O)CCCCC[C@H](NC(=O)[C@H]1CC12CCN(C)CC2)c1ncc(-c2cnc3cccnc3c2)[nH]1 | 5.21
* CCC(=O)CCCCC[C@H](NC(=O)C1=NOC2(CCN(C(C)C)CC2)C1)c1ncc(-c2ccccc2)[nH]1 | 5.48
* CCC(=O)CCCCC[C@H](NC(=O)CC1CC2(C1)CN(C(C)=O)C2)c1ncc(-c2ccccc2)[nH]1 | 4.96

----------
Items are presented alongside their recorded IC50.
- assay-target: Recombinant human HDAC3/SMRT heterodimer (Homo sapiens, UniProt O15379)
- Construct: FLAG (C); made in house
- measurement-protocol: Human HDAC enzyme inhibitor Fluor-de-Lys assay, HDAC3/SMRT
- Assay type: biochemical
- conditions-used: recombinant human HDAC3/SMRT, Fluor-de-Lys assay
measurement-name: IC50 (nM)

• CCC(=O)CCCCC[C@H](NCC1CC1)c1ncc(-c2cc3ccc(C)nc3cc2OC)[nH]1 = 241
• CCC(=O)CCCCC[C@H](NC(=O)C1=NOC2(CCN(C)CC2)C1)c1nnc(-c2cc3ccccc3nc2OC)o1 = 8.87
• CCC(=O)CCCCC[C@H](NC(=O)C1CC12CCOCC2)c1ncc(-c2cc3ccc(C)nc3cc2OC)[nH]1 (single isomer, unassigned) [Compound 407] = 3.68
• CCC(=O)CCCCC[C@H](N)c1ncc(-c2cc3ccc(=O)n(C)c3cc2OC)o1 = 92.1
• CCC(=O)CCCCC[C@@H](NC(=O)C1CCC2(CC1)CN(C)C2)c1ncc(-c2ccccc2)[nH]1 = 10.4
• CCC(=O)CCCCC[C@H](NC(=O)CC1CC2(C1)CN(C)C2)c1nnc(-c2cc3ccccc3nc2OC)o1 = 27.4
• CCC(=O)CCCCC[C@H](NC(=O)[C@H]1CC[C@]2(CC1)OC(=O)c1cccnc12)c1nnc(-c2cc3ccccc3nc2OC)o1 = 20.6

----------
- assay-target: Recombinant human HDAC3/SMRT heterodimer (Homo sapiens)
- Construct: FLAG (C); made in house
- measurement-protocol: Human HDAC enzyme inhibitor Fluor-de-Lys assay, HDAC3/SMRT
- Format: biochemical
- conditions-used: recombinant human HDAC3/SMRT, Fluor-de-Lys assay
measurement-name: IC50 (nM)

- CCC(=O)CCCCC[C@H](NC(=O)[C@H]1CC12CCN(CC1CC1)CC2)c1ncc(-c2cc3ccc(C)nc3cc2OC)o1: 0.08
- CCC(=O)CCCCC[C@H](NC(=O)C1NC(=O)CC12CN(C)C2)c1ncc(-c2cc3ccccc3nc2OC)[nH]1 (some centres unmarked): 0.84
- CCC(=O)CCCCC[C@H](NC(=O)C1CC12CCNCC2)c1nnc(-c2cc3ccccc3nc2OC)o1 (some centres unmarked): 10.5
- CCC(=O)CCCCC[C@H](NC(=O)C1CCC2(CC1)CNC2)c1nnc(-c2cc3ccccc3nc2OC)o1: 6.56
- CCC(=O)CCCCC[C@H](NC(=O)[C@H]1CC12CCN(C)CC2)c1ncc(-c2cc3ocnc3cc2OC)o1: 7.37
- CCCC(=O)CCCCC[C@H](N)c1ncc(-c2cc3ccc(C)nc3cc2OC)[nH]1: 95.6
- CCC(=O)CCCCC[C@H](NC(=O)C1CC12CCN(CC)CC2)c1nc(-c2ccc(F)cc2)[nH]c1-c1cccs1 (some centres unmarked): 66.1
- CCC(=O)CCCCC[C@H](NC(=O)[C@H]1CC[C@@]2(CC1)OC(=O)c1ccncc12)c1ncc(-c2ccccc2)[nH]1: 14.1
- CCC(=O)CCCCC[C@H](NC(=O)[C@H]1CC12CCN(C)CC2)c1ncc(-c2cnc(OC)nc2)[nH]1: 81.9
- CCC(=O)CCCCC[C@H](NC(=O)[C@H]1CC12CCN(CC)CC2)c1ncc(-c2cnc3cc(C(F)(F)F)ccc3c2)[nH]1: 0.43
- CCC(=O)CCCCC[C@H](NC(=O)C1NC(=O)CC12CNC2)c1nnc(-c2cc3ccccc3nc2OC)o1 (some centres unmarked): 3.23
- CCC(=O)CCCCC[C@H](NC(=O)C1=NOC2(CCN(C(C)C)CC2)C1)c1ncc(-c2ccccc2)[nH]1: 4.77
- CCC(=O)CCCCC[C@H](NC(=O)C1=NOC2(CCN(C)CC2)C1)c1ncc(-c2ccc(-c3ccccn3)cc2OC)o1: 18.6

----------
Items are presented alongside their recorded pIC50.
- assay-target: Recombinant human HDAC3/SMRT heterodimer (Homo sapiens, UniProt O15379)
- Construct: FLAG (C); made in house
- measurement-protocol: Human HDAC enzyme inhibitor Fluor-de-Lys assay, HDAC3/SMRT
- Assay type: biochemical
- conditions-used: recombinant human HDAC3/SMRT, Fluor-de-Lys assay
pIC50: −log10 of the molar value.
measurement-name: pIC50

- CCC(=O)CCCCC[C@H](NC(=O)C1=NOC2(CCN(C)CC2)C1)c1ncc(-c2cc3cccnc3cc2OC)o1 [Compound 223]: 8.69
- CCC(=O)CCCCC[C@H](NC(=O)C1=NOC2(CCN(CC3CC3)CC2)C1)c1ncc(-c2cc3ccc(=O)n(C)c3cc2F)o1 [Compound 387]: 7.32
- CCC(=O)CCCCC[C@H](NC(=O)[C@H]1CC[C@@]2(CC1)OC(=O)c1cccnc12)c1ncc(-c2ccccc2)[nH]1 [Compound 375]: 7.70
- CCC(=O)CCCCC[C@H](NC(=O)[C@H]1CC[C@@]2(CC1)OC(=O)c1cnccc12)c1ncc(-c2ccccc2)[nH]1 [Compound 373]: 7.73
- CCC(=O)CCCCC[C@H](NCc1ccncc1)c1ncc(-c2cc3ccc(C)nc3cc2OC)[nH]1 [Compound 404]: 6.30
- CCC(=O)CCCCC[C@H](NC(=O)C1(N)CC2(CN(C)C2)C1)c1ncc(-c2cc3ccccc3nc2OC)[nH]1 [Compound 276]: 8.80
- CCC(=O)CCCCC[C@H](NC(=O)[C@H]1CC12CCN(C)CC2)c1ncc(-c2ccc(F)cc2F)[nH]1 [Compound 289]: 7.66
- CCC(=O)CCCCC[C@H](NC(=O)CC1CC2(C1)CN(C)C2)c1ncc(-c2ccccc2)[nH]1 [Compound 307]: 7.77
- CCC(=O)CCCCC[C@H](NC(=O)C1NC(=O)CC12CN(C(=O)OC(C)(C)C)C2)c1nnc(-c2cc3ccccc3nc2OC)o1 (stereo partly drawn) [Compound 302]: 7.43
- CCC(=O)CCCCCC(NC(=O)C1CCC2(CC1)OC(=O)c1cnccc12)c1nnc(-c2cc3ccccc3nc2OC)o1 (stereo not drawn) [Compound 364]: 7.66
- CCC(=O)CCCCC[C@H](NC(=O)C1=NOC2(CCN(CC)CC2)C1)c1ncc(-c2cc3ccc(C)nc3cc2F)[nH]1 [Compound 233]: 8.06
- CCC(=O)CCCCC[C@H](NC(=O)C1=NOC2(CCN(C)CC2)C1)c1ncc(-c2cc3ccc(=O)n(C)c3cc2F)o1 [Compound 386]: 7.91
- CCC(=O)CCCCC[C@H](NC(=O)C1=NOC2(CCN(CC)CC2)C1)c1ncc(-c2cc3ccc(=O)n(C)c3cc2OC)o1 [Compound 235]: 8.66
- CCC(=O)CCCCC[C@H](NC(=O)C1=NOC2(CCN(C(C)=O)CC2)C1)c1ncc(-c2ccccc2)[nH]1 [Compound 380]: 8.05
- CCC(=O)CCCCC[C@H](NC(=O)[C@H]1CC12CCN(C)CC2)c1ncc(-c2ccc3c(c2)c2ccccc2n3C)[nH]1 [Compound 265]: 8.41
- CCC(=O)CCCCCC(CC)(NC(=O)[C@H]1CC12CCN(CC1CC1)CC2)c1nc(-c2cc3ccc(C)nc3cc2OC)c[nH]1 (stereo partly drawn) [Compound 420]: 6.48
- CCN[C@@H](CCCCCC(=O)CC)c1ncc(-c2cc3ccc(C)nc3cc2OC)[nH]1 [Compound 403]: 6.55
- CCC(=O)CCCCC[C@H](NC(=O)[C@H]1CC[C@]2(CC1)OC(=O)c1ncccc12)c1ncc(-c2ccccc2)[nH]1 [Compound 377]: 8.16
- CCC(=O)CCCCC[C@H](NC(=O)CCN1C(=O)C(CC)=NC12CCOCC2)c1ncc(-c2ccccc2)[nH]1 [Compound 384]: 7.90
- CCC(=O)CCCCC[C@H](NC(=O)[C@H]1CC12CCN(CC)CC2)c1ncc(-c2ccc3nn(C4CC4)cc3c2)[nH]1 [Compound 238]: 9.57
- CCC(=O)CCCCC[C@H](NC(=O)CC1CC2(CNC2)C1)c1nnc(-c2cc3ccccc3nc2OC)o1 [Compound 301]: 7.80
- CCCC(=O)CCCCC[C@H](NC(=O)[C@H]1CC12CCN(CC1CC1)CC2)c1ncc(-c2cc3ccc(C)nc3cc2OC)[nH]1 [Compound 416]: 8.95
- CCC(=O)CCCCC[C@H](NC(=O)[C@H]1CC12CCN(C)CC2)c1[nH]c(-c2ccc(F)cc2)nc1Cl [Compound 240]: 8.53
- CCC(=O)CCCCC[C@H](NC(=O)C1=NOC2(CCN(C)CC2)C1)c1ncc(-c2ccccc2)[nH]1 [Compound 382]: 8.10
- CCCn1cc(-c2[nH]c(-c3ccc(F)cc3)nc2C(CCCCCC(=O)CC)NC(=O)C2CC23CCN(CC)CC3)cn1 (stereo not drawn) [Compound 254]: 7.53
